System: HBV
protocol: Anti-viral assay in HepG2.2.15 cells: anti-HBV activity, HBV DNA in culture medium by qPCR
Assay type: cell-based
experimental.context: Hepatitis B virus, HepG2.2.15, 144 h

compound: CCOC(=O)C1=C(CN2CCN3C(=NC(C)=O)N(CC(C)(C)C(=O)O)CC3C2)NC(c2nccs2)=N[C@H]1c1cccc(F)c1C (stereo partly shown)
EC50 / nM: 790

====

protocol: Pharmacokinetic study after intravenous and oral administration in male SD rats
Type: in vivo
experimental.context: male, SD; rat plasma, PO, nominal 5 mg/kg
Experimental: Male SD rats with a weight range of 250-300 g (Si Bei Fu Laboratory Animal Technology Co. Ltd, China) were used. Animals were fasted overnight and free access to food 4 hours after dosing. […] Plasma samples were analyzed using LC-MS/MS methods. The lower limit of quantification (LLOQ) for plasma was 1.0 ng/ml. […]

compound: COC(=O)C1=C(CN2CCN3C(=S)N(CC(C)(C)C(=O)O)CC3C2)NC(c2nccs2)=NC1c1ccc(F)cc1Cl (single isomer, unassigned)
units: ng/mL
Cmax: 962
//
compound: CCOC(=O)C1=C(CN2CCN3C(=O)N(CC(C)(C)C(=O)O)C[C@@H]3C2)NC(c2nccs2)=N[C@H]1c1cccc(F)c1C [Reference 2, reference compound]
units: ng/mL
Cmax: 332
//
compound: CCOC(=O)C1=C(CN2CCN3C(=S)N(CC(C)(C)C(=O)O)CC3C2)NC(c2nccs2)=N[C@H]1c1cccc(F)c1C (single isomer, unassigned)
units: ng/mL
Cmax: 4060
//
compound: CCOC(=O)C1=C(CN2CCN3C(=S)N(CC(C)(C)C(=O)O)CC3C2)NC(c2nccs2)=NC1c1cccc(F)c1Cl (single isomer, unassigned)
units: ng/mL
Cmax: 1180

Values compiled from patent US20230165865A1.
